- System: Candida albicans
- ASSAY_SUMMARY: Fungicidal activity against Candida albicans NCIM-3471 after 48 to 72 hrs by two fold serial macrodilution technique
- Type: functional
MFC for assorted compounds

| COMPOUND | UNIT_OF_MEASUREMENT | MFC |
| --- | --- | --- |
| COc1ccc(C2SCC(=O)N2c2ccc(Cl)cc2O)c(OC)c1 (centres undefined) | µg/mL | 17.5 |
| N#Cc1ccc(C2SCC(=O)N2c2ccc(Cl)cc2O)cc1 (centres undefined) | µg/mL | 140 |
| O=C1CSC(c2ccccc2)N1c1ccc(Cl)cc1O (centres undefined) | µg/mL | 115 |
| O=C1CSC(c2ccc(Cl)cc2Cl)N1c1ccc(Cl)cc1O (centres undefined) | µg/mL | 160 |

Just for reference, ChEMBL document CHEMBL3352499 is where these values come from.
